The reader will find reported protein stability index values listed item by item below.
B1: FBXO3 (parent)
chain: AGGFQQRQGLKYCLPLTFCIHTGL

variants of: B1; test: protein stability index of a GFP-peptide fusion (GPS, HEK-293T) (PSI 1-6); higher = more stable; conditions: c terminus: a fixed tail appended;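 further: lentivirally expressed fusions sorted by FACS into six bins by GFP to DsRed ratio, PSI derived from sequencing read proportions per bin multiplied by bin number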
// no unit, no text: just the number

Recorded results for 3 variants are shown here.
G23W: 2.97
Y12L: 3.06
K11R: 2.03

What measured protein stability index goes with G23R ?
3.05

And what about the variant G9H ?
2.94

Moving on to Q5T
2

Now try P15L .
2.01

Likewise for P15M ?
2.93

What about this variant? C19N
2.04

Note, next up: C19G
1.97

Now the same for C13Q
3

Can you handle G3E next?
1.99

How about this variant: I20R
3.02

Would you kindly repeat that for I20E ?
2.95
